Biological target: G-protein coupled receptor 55 (Homo sapiens, UniProt Q9Y2T6)
Sequence (Q9Y2T6 whole entry): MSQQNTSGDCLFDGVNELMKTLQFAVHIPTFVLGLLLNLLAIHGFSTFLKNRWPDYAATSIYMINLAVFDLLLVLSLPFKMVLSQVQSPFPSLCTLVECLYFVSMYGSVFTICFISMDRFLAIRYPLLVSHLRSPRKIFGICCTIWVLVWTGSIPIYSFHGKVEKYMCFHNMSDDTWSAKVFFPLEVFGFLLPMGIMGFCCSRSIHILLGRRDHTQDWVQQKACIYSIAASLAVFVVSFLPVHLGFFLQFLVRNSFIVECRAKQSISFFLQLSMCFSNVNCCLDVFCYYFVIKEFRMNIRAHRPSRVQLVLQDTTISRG
Assay: GPR55 antagonists blocking LPI-driven arrestin recruitment, primary screen, imaging, U2OS, beta-arrestin-GFP, LPI agonist (AID 2013);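 further: antagonist potency measured as reduced agonist-driven arrestin aggregation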
Assay type: functional
Active and inactive are the calls of the source.
Measured IC50 of individual entries
PARAMETER MEASURED: IC50

* Nc1ccc(N2CCCCC2)c(S(=O)(=O)Nc2ccccc2Cl)c1 | 3530 nM (active)
* COc1ccc(C(=O)NC(=S)N(Cc2ccccc2)Cc2ccccc2)cc1 | 4360 nM (active)
* O=C(NC12CC3CC(CC(C3)C1)C2)c1ccc(-c2ccc(Cl)cc2)o1 | 598 nM (active)
* CNc1cc(Cl)c2nonc2c1[N+](=O)[O-] | 1110 nM (active)

---

As a worked illustration, we turn to AC50 data collected for Cytochrome P450 3A4 (Homo sapiens).
PARAMETER MEASURED: AC50

* Ic1ccccc1CN[C@@H]1C2CCN(CC2)[C@H]1C(c1ccccc1)c1ccccc1 | 20 µM (inconclusive)
* CCOC(=O)c1c(N=C(S)Nc2ccccc2)sc2c1CCN(CCc1ccccc1)C2 | 22.4 µM (inconclusive)
* O=C(Cc1ccccc1)N/N=C/c1cc(Br)c(Br)o1 | 28.2 µM (inconclusive)
* O=S(=O)(NC(=Nc1ccc(F)cc1F)c1ccc(Cl)cc1)c1ccccc1 | 2.82 µM (inconclusive)
* Cc1ccc(S(=O)(=O)N2CCC(C(=O)NCCCOC(C)C)CC2)cc1 | 25.1 µM (inconclusive)

---

Target: Polyadenylate-binding protein 1 (Homo sapiens)
Sequence (P11940 whole entry): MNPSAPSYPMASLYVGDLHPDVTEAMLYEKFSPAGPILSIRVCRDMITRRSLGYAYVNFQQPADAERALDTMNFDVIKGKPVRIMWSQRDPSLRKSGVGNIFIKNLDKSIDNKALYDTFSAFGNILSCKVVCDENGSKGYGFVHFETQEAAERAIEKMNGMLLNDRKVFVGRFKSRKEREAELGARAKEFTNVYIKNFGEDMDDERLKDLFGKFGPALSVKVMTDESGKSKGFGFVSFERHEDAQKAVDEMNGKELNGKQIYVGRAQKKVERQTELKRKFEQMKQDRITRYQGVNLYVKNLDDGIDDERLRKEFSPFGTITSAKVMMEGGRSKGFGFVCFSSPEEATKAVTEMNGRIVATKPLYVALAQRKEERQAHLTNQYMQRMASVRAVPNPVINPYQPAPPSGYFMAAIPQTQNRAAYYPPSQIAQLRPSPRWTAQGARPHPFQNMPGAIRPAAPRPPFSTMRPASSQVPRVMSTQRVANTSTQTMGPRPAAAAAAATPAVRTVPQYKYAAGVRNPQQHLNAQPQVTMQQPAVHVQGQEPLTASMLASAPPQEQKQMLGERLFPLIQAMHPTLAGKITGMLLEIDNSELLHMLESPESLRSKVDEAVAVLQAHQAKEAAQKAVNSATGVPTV
Assay: PABP inhibition in translation initiation, SAR follow-up (AID 435018)
Assay type: functional
Calls of active or inactive are those of the source.
Outcome codes: active, inactive

• O=C(COc1ccc(C=NNC(=O)c2ccc(O)cc2)cc1)Nc1ccc([N+](=O)[O-])cc1 = inactive
• CC(=O)Nc1cccc(NC(=O)CSc2ccc(-c3ccco3)nn2)c1 = inactive
• COc1ccc(Cl)cc1NC(=O)COC(=O)c1ccc(NC(N)=O)cc1 = inactive
• CCN1CCN(S(=O)(=O)c2ccc(Cl)c(C(=O)N(CC)CC(=O)Nc3ccc(OC)cc3)c2)CC1 = active

---

Target: Rac GTPase-activating protein 1 (Homo sapiens, UniProt Q9H0H5)
Sequence (Q9H0H5 whole entry): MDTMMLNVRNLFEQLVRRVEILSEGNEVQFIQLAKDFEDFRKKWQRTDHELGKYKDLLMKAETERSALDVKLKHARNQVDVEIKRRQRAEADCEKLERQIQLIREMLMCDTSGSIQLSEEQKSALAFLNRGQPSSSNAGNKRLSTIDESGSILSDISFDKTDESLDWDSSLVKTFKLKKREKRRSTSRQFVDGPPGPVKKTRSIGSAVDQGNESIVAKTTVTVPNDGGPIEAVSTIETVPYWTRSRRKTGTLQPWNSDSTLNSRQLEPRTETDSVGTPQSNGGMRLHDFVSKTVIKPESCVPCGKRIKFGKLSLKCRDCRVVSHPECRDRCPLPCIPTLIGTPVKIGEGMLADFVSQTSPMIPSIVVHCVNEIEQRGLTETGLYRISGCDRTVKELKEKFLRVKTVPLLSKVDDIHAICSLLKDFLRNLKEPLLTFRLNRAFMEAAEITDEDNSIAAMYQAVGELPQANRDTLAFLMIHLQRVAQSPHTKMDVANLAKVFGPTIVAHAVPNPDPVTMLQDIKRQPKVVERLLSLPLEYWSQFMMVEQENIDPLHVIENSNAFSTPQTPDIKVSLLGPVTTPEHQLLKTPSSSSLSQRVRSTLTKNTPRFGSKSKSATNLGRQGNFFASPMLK
Test: MgcRacGAP GTPase-activating activity inhibitors, confirmation, biochemical, ADP Hunter fluorescence, primary and confirmatory (AID 624330)
Format: functional
The source made the active and inactive calls.
Recorded IC50 values for a group of molecules are listed next.
PARAMETER MEASURED: IC50

* CN1C(=O)/C(=C/C=C2/CCCN2C)N(C)C1=S | 24.2 µM (active)
* COc1ccc2c(c1)-c1nc(/N=C/c3cccc(OC)c3O)sc1CC2 | 23.7 µM (active)
* O=C(O)c1ccc2c(c1)C(=O)/C(=C\c1ccco1)C2=O | 89.2 µM (active)
* CCCC(=O)NC(=S)Nc1cccc2c(O)cccc12 | 47.7 µM (active)
* O=C(COc1ccccc1)N1CCN(C2CCCC2)CC1 | 127 µM (active)
* OCCN1CCN(Cc2ccc3ccccc3c2)CC1 | 95.6 µM (active)

---

Molecular target: Heat shock protein HSP 90-alpha (Homo sapiens, UniProt P07900)
Assay type: functional, organism-based
Calls of active or inactive are those of the source.
In this section, each of the compounds is paired with its reported AC50.
PARAMETER MEASURED: AC50

• N=C(Cc1ccc(Cl)cc1Cl)NOC(=O)c1ccc(Br)o1 = 3.11 µM (active)
• CC(=O)NC(c1ccc(C(C)C)cc1)c1ccc2cccnc2c1O (stereo not given) = 3.58 µM (active)
• COc1ccc(C2=CC3=C(Br)C(=O)C(C)(OC(=O)C4CCCC4)C(=O)C3=CO2)cc1 (stereo not given) = 1.68 µM (active)
• O=C(N/N=C/c1cc(Cl)c(O)c(Cl)c1)c1cc2c(ccc3ccccc32)o1 = 4.54 µM (active)
• CC(C)Cn1c(=O)c(C(=O)Nc2ccncc2)c(O)c2ccccc21 = 6.7 µM (active)

---

Here the recorded EC50 is given for each entry.
Target: Corticotropin-releasing factor receptor 2/Corticotropin-releasing factor-binding protein (Homo sapiens, UniProt P24387+Q13324)
Sequence (Q13324 whole entry): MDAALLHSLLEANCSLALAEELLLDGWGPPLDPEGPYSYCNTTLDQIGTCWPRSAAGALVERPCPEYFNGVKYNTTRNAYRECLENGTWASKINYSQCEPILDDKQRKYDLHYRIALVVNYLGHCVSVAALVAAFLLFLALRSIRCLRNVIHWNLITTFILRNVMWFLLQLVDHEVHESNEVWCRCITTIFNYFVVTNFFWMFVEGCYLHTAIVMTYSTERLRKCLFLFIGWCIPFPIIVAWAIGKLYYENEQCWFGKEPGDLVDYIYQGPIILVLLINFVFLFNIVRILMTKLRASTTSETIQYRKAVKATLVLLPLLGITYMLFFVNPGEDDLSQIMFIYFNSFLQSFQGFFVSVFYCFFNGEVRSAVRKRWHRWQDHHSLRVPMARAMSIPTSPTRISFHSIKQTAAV
Sequence (P24387 whole entry): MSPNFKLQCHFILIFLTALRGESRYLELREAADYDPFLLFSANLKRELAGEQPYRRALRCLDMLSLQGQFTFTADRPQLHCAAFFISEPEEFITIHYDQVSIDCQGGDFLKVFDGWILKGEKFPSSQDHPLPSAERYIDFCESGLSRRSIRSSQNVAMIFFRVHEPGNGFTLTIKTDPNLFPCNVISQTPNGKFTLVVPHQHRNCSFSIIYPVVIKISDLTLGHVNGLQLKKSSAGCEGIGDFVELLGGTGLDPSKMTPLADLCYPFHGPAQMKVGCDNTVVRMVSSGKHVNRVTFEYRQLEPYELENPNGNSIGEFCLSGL
Test: activators of CRF receptor 2 with binding protein – uHTS hits, confirmation (AID 602473)
Format: functional
Conditions: read-out: EC50_Mean
Activity calls are given as the source filed them.
PARAMETER MEASURED: EC50

* C=CCN1CCC2(C)c3cc(O)ccc3CC1C2C (stereo unspecified) | > 53 µM (inactive)
* COC(=O)CSc1nn(-c2ccc(F)cc2)c(=S)s1 | > 53 µM (inactive)
* CCOc1ccc(NS(=O)(=O)c2ccc(C(=O)N3CCCC(C)C3)cc2)cc1 (stereo unspecified) | 11.1 µM (active)
* O=C(CN1CCCC1)Nc1ccccc1Sc1ccccc1 | > 53 µM (inactive)
* Nc1ccccc1Oc1c(F)c(F)c(Oc2ccccc2N)c(F)c1F | > 53 µM (inactive)
* N#Cc1cccc(NC(=O)Nc2cccs2)c1 | > 53 µM (inactive)

---

Tested on: BJ
Test: cytotoxicity toward BJ-TERT fibroblasts, dose response, cell-based, RAS-independent, luminescence (AID 1933)
Format: functional
Conditions: Homo sapiens
Calls of active or inactive are those of the source.
Recorded EC50, one value per entry.
PARAMETER MEASURED: EC50

• Cc1cccc(N2C(=O)NC(=O)/C(=C\c3c(-c4ccccc4)[nH]c4ccccc34)C2=O)c1 = 3.69 µM (active)
• CCOCCCNC(=O)c1ccc2c(c1)N=C(CC)c1cc(Br)ccc1S2 = 0.342 µM (active)
• CCCN1C(=O)/C(=C\C=C2/Sc3ccccc3N2CC)SC1=S = > 150 µM (not active)
• CC(=O)NC(c1ccc(C(C)C)cc1)c1ccc2cccnc2c1O (centres undefined) = 0.958 µM (active)

---

Biological target: Corticotropin-releasing factor receptor 2/Corticotropin-releasing factor-binding protein (Homo sapiens, UniProt P24387+Q13324)
Test: Dose Response confirmation of uHTS hits for small molecule antagonists of the CRF-binding protein and CRF-R2 receptor complex.
Assay type: functional
Conditions: read-out: IC50_Mean
Activity calls are given as the source filed them.
Labels: t for active, f for inactive

* Cc1cc(C)nc(SCc2nnc(SCc3ccc([N+](=O)[O-])cc3)n2Cc2ccco2)n1 | f
* CCOc1ccc(-n2c(SCc3ccc([N+](=O)[O-])cc3)nnc2-c2ccc(OC)cc2)cc1 | t
* COC(=O)CSc1nn(-c2ccc(F)cc2)c(=S)s1 | t
* COc1ccc([N+](=O)[O-])cc1NC(=O)c1ccccc1SC | t
* Nc1ccccc1Oc1c(F)c(F)c(Oc2ccccc2N)c(F)c1F | t
* COc1ccc(F)cc1S(=O)(=O)NCC(=O)NCc1cc(=O)n(C)c(=O)n1C | f

---

Molecular target: Corticotropin-releasing factor receptor 2/Corticotropin-releasing factor-binding protein (Homo sapiens, UniProt P24387+Q13324)
Assay: Dose Response confirmation of uHTS hits for small molecule antagonists of the CRF-binding protein and CRF-R2 receptor complex.
Format: functional
Conditions: read-out: IC50_Mean
Active and inactive are the calls of the source.
Possible outcomes: active, inactive

* N#Cc1cccc(NC(=O)Nc2cccs2)c1 | active
* CN(C)C1=NP(N(C)C)(N(C)C)=NC(c2ccccc2)=N1 | active
* N#CCSc1nc2sccc2c(=O)n1-c1ccccc1 | inactive
* CC1(C)CC(NCCC(c2ccccc2)c2ccco2)CCO1 (stereo unspecified) | inactive
* O=C(COc1cccc2c1CCN(Cc1ccc(Br)cc1)C2=O)NCc1ccco1 | inactive
* O=C1Nc2ccccc2/C1=C1/SC(=S)N(NC(=O)c2cccc(O)c2)C1=O | active
